Target: Autotaxin (Homo sapiens)
Assay: Inhibition of human recombinant C-terminal FLAG-tagged autotaxin expressed in baculovirus-infected Sf9 cells assessed as FS-3 hydrolysis at 10 uM relative to control
inhibition values by entry
Quick reminder: number only, in %, skip the unit.

compound	unit.info	value.reported
Cc1ccc(Nc2cccc3c2C(=O)c2cccc(Nc4ccc(C)cc4S(=O)(=O)O)c2C3=O)c(S(=O)(=O)O)c1	%	6

Prompt line: Which inhibition value belongs to "O=C(Nc1ccc2c(O)c(/N=N/c3ccccc3)c(S(=O)(=O)O)cc2c1)Nc1ccc2c(O)c(/N=N/c3ccc4cc(S(=O)(=O)O)ccc4c3)c(S(=O)(=O)O)cc2c1" ?
Response line: 61

Prompt line: Which inhibition value belongs to "Nc1ccc(C(=O)Nc2cccc(C(=O)Nc3ccc4c(O)c(/N=N/c5ccc(/N=N/c6ccc(S(=O)(=O)O)cc6)cc5)c(S(=O)(=O)O)cc4c3)c2)cc1" ?
Response line: 39

Prompt line: Which inhibition value belongs to O=S(=O)(O)c1ccc(-c2c3nc(c(-c4ccc(S(=O)(=O)O)cc4)c4ccc([nH]4)c(-c4ccc(S(=O)(=O)O)cc4)c4ccc([nH]4)c(-c4ccc(S(=O)(=O)O)cc4)c4nc2C=C4)C=C3)cc1 [TETRAPHENYLPORPHINE TETRASULFONIC ACID] ?
Response line: 61

Prompt line: Which inhibition value belongs to "Nc1ccc(C(=O)Nc2ccc(C(=O)Nc3ccc4cc(S(=O)(=O)O)cc(S(=O)(=O)O)c4c3)cc2)cc1" ?
Response line: 5

Prompt line: Which inhibition value belongs to "O=C1c2ccc(S(=O)(=O)O)cc2C(=O)c2c(Nc3ccccc3)ccc(Nc3ccc(S(=O)(=O)O)cc3)c21" ?
Response line: 6

Prompt line: Which inhibition value belongs to "O=C(O)c1ccccc1-c1c2cc/c(=N\c3ccccc3)cc-2oc2cc(Nc3ccc(S(=O)(=O)O)cc3)ccc12" ?
Response line: 27

Prompt line: Which inhibition value belongs to COc1ccc(NS(=O)(=O)c2ccc(NC(CNC(C)S(=O)(=O)O)S(=O)(=O)O)cc2)cc1 (stereo unspecified) ?
Response line: 4

Prompt line: Which inhibition value belongs to "Cc1cc(C)c(S(=O)(=O)O)c(C)c1Nc1ccc(Nc2c(C)cc(C)c(S(=O)(=O)O)c2C)c2c1C(=O)c1ccccc1C2=O" ?
Response line: 13

====

Target: Autotaxin (Homo sapiens, UniProt Q13822)
Experiment: Inhibition of human recombinant C-terminal FLAG-tagged autotaxin expressed in baculovirus-infected Sf9 cells assessed as FS-3 hydrolysis at 10 uM relative to control
Tag: t if measured inhibition is not below 50%, f if it is.

Sample answers from the record:
smiles.representation	category
O=C(Nc1cccc(C(=O)Nc2ccc3cc(S(=O)(=O)O)cc(S(=O)(=O)O)c3c2)c1)Nc1cccc(C(=O)Nc2ccc3cc(S(=O)(=O)O)cc(S(=O)(=O)O)c3c2)c1	f
O=C(Nc1ccc2c(O)cc(S(=O)(=O)O)cc2c1)c1ccc([N+](=O)[O-])cc1	f
Cc1ccc(Nc2cccc3c2C(=O)c2cccc(Nc4ccc(C)c(S(=O)(=O)O)c4)c2C3=O)cc1S(=O)(=O)O	f
Cc1cc(/C(=C2C=C/C(=N\c3ccc(S(=O)(=O)O)cc3)C=C\2)c2ccc(Nc3ccc(S(=O)(=O)O)cc3)cc2)cc(S(=O)(=O)O)c1N	t

With those in mind, consider the next compound.
Prompt line: In plain terms: is recorded inhibition at least 50% for "Nc1ccc2c(O)c(/N=N/c3ccc(-c4ccc(/N=N/c5c(S(=O)(=O)O)cc6cc(S(=O)(=O)O)c(/N=N/c7cc(O)ccc7O)c(N)c6c5O)cc4)cc3)c(S(=O)(=O)O)cc2c1" ?
Response line: f
